Every entry's value here was drawn from ChEMBL document CHEMBL3992537.

Quick list: fold change (FC) per entry.
Molecular target: Sialic acid-binding Ig-like lectin 7 (Homo sapiens, UniProt Q9Y286)
Sequence (Q9Y286 whole entry, the tested form may be a part): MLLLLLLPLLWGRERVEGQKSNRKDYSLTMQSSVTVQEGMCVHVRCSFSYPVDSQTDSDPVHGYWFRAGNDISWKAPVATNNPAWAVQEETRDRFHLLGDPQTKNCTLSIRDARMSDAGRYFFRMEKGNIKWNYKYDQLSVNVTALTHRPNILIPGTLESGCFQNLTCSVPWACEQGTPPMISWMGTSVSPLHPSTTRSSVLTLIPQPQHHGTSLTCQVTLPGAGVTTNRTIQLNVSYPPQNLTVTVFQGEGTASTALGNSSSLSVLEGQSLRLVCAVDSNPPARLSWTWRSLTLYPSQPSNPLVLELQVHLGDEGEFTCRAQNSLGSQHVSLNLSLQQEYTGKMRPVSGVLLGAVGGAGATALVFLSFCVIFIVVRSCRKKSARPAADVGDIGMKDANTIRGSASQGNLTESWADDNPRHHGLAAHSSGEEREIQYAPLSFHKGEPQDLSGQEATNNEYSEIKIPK
Assay: Binding affinity to human IgG1-fused Siglec-7-Fc assessed as inhibition of Siglec-7-Fc binding to RBC preincubated for 10 mins followed by RBC addition measured after 20 mins by FACS analysis relative to sodium (4S,5R,6R)-5-acetamido-4-hydroxy-2-methoxy-6-((1R,2R)-1,2,3 trihydroxypropyl)tetrahydro-2H-pyran-2-carboxylate

Please review the following examples before continuing.
| molecule | fold change (FC) |
| --- | --- |
| COC1(C(=O)O)C[C@H](O)[C@@H](NC(C)=O)[C@H]([C@H](O)[C@H](O)CNC(=O)Cc2ccc(-c3ccccc3)cc2)O1 (some centres not stated) | 4.5 |
| CC(=O)N[C@H]1[C@H]([C@H](O)[C@H](O)CNC(=O)C(=O)Nc2ccccc2)O[C@@](OCCCn2cc(-c3ccc(-c4ccccc4)cc3)nn2)(C(=O)O)C[C@@H]1O | 6.8 |
| CC(=O)N[C@H]1[C@H]([C@H](O)[C@H](O)CNS(=O)(=O)c2ccccc2)O[C@@](OCCCn2cc(-c3ccc(-c4ccccc4)cc3)nn2)(C(=O)O)C[C@@H]1O | 0.49 |
| CC(=O)N[C@H]1[C@H]([C@H](O)[C@H](O)CNC(=O)Cc2ccccc2)O[C@@](OCCCn2cc(-c3ccc(-c4ccccc4)cc3)nn2)(C(=O)O)C[C@@H]1O | 0.6 |
| CC(=O)N[C@H]1[C@H]([C@H](O)[C@H](O)CNS(N)(=O)=O)O[C@@](OCCCn2cc(-c3ccc(-c4ccccc4)cc3)nn2)(C(=O)O)C[C@@H]1O | 0.45 |
| COC1(C(=O)O)C[C@H](O)[C@@H](NC(C)=O)[C@H]([C@H](O)[C@H](O)CNC(=O)C(N)=O)O1 (some centres not stated) | 4.1 |
| COC1(C(=O)O)C[C@H](O)[C@@H](NC(C)=O)[C@H]([C@H](O)[C@H](O)CNC(=O)Cc2ccc3ccccc3c2)O1 (some centres not stated) | 8.2 |
| CC(=O)N[C@H]1[C@H]([C@H](O)[C@H](O)CNC(=O)C(=O)O)O[C@@](OCCCn2cc(-c3ccc(-c4ccccc4)cc3)nn2)(C(=O)O)C[C@@H]1O | 3.6 |
| CC(=O)N[C@H]1[C@H]([C@H](O)[C@H](O)CNS(=O)(=O)C(F)(F)F)O[C@@](OCCCn2cc(-c3ccc(-c4ccccc4)cc3)nn2)(C(=O)O)C[C@@H]1O | 0.41 |
| CC(=O)N[C@H]1[C@H]([C@H](O)[C@H](O)CNS(=O)(=O)Cc2ccccc2)O[C@@](OCCCn2cc(-c3ccc(-c4ccccc4)cc3)nn2)(C(=O)O)C[C@@H]1O | 0.17 |

Looking up CC(=O)N[C@H]1[C@H]([C@H](O)[C@H](O)CNS(=O)(=O)NC(=O)OCc2ccccc2)O[C@@](OCCCn2cc(-c3ccc(-c4ccccc4)cc3)nn2)(C(=O)O)C[C@@H]1O , I found its fold change (FC) recorded as 0.27

Looking up CCCS(=O)(=O)NC[C@@H](O)[C@@H](O)[C@@H]1O[C@@](OCCCn2cc(-c3ccc(-c4ccccc4)cc3)nn2)(C(=O)O)C[C@H](O)[C@H]1NC(C)=O , I found its fold change (FC) recorded as 0.33
